Reference source for all entries: paper PMC7594070

Experimental System: β-glucosidase/β-galactosidase from Agrobacterium sp. (Abg, GH1) (Agrobacterium sp., UniProt P12614)
Sequence (P12614 whole entry): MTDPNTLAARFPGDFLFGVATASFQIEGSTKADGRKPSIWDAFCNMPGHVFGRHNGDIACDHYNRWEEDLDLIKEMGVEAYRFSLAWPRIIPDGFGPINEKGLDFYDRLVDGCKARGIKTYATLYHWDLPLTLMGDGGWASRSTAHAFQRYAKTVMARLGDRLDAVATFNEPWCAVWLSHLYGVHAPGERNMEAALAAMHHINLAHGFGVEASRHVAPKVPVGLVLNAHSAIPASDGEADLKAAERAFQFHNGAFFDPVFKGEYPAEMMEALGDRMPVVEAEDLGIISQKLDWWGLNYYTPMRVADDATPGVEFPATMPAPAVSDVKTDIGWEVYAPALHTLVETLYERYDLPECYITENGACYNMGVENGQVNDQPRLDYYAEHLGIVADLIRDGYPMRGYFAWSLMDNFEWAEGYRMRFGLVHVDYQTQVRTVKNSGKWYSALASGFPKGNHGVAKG
Method Description: Ki determination, Agrobacterium sp. β-glucosidase (Abg)
Recorded Conditions: pH 7, substrate pNP β-Gal, room temperature; read-out: Ki Abg (GH1) β-Glc/Gal
# maps each entry to its Ki
Observation Type: Ki (nM)

>>> print(df.to_string())
                                   molecule  test_value
0  CN(C)c1cccc2c(S(=O)(=O)NCCc3ccc(C(=O)OCCCCCCN4C[C@@H](O)[C@H](O)[C@@H](O)C4)cc3)cccc12 [Compound 56]         760
1  O=C(OCCCCCCN1C[C@H](O)[C@@H](O)[C@H](O)[C@H]1CO)c1ccc(OCCOCCOC(C(F)(F)F)(C(F)(F)F)C(F)(F)F)cc1 [Compound 49]        3600
2  C#CCOc1ccc(C(=O)OCCCCCCN2C[C@H](O)[C@@H](O)[C@H](O)[C@H]2CO)cc1 [Compound 51]         2.2
3  [N-]=[N+]=NCCOCCOc1ccc(C(=O)OCCCCCCN2C[C@@H](O)[C@H](O)[C@@H](O)C2)cc1 [Compound 48]       32600
4  CN(C)c1cccc2c(S(=O)(=O)NCCc3ccc(C(=O)OCCCCCCN4C[C@H](O)[C@@H](O)[C@H](O)[C@H]4CO)cc3)cccc12 [Compound 55]          60
5  O=C(NCCc1ccc(C(=O)OCCCCCCN2C[C@H](O)[C@@H](O)[C@H](O)[C@H]2CO)cc1)OCc1ccccc1 [Compound 53]          60
